Values from ChEMBL document CHEMBL2074254

Molecular target: Hepatic sodium/bile acid cotransporter (Homo sapiens)
Sequence (Q14973 whole entry): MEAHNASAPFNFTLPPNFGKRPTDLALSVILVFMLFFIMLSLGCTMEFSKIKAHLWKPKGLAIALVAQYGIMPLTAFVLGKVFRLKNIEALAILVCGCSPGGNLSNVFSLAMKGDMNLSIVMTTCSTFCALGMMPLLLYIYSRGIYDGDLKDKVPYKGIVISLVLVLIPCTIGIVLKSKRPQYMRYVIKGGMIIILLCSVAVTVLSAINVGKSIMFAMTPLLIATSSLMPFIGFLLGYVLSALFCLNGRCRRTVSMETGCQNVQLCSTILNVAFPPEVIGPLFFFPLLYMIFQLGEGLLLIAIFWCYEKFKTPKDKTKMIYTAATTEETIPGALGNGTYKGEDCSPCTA
Experiment: TP_TRANSPORTER: uptake in Xenopus laevis oocytes
Assay type: functional, cell-based
Conditions: oocyte
OBSERVED PROPERTY: Activity

Worked cases, Activity given:
COMPOUND	OBSERVED
C[C@]12CC[C@@H]3c4ccc(OS(=O)(=O)O)cc4CC[C@H]3[C@@H]1CCC2=O	substrate [+]
C[C@H](CCC(=O)NCCS(=O)(=O)O)[C@H]1CC[C@H]2[C@@H]3[C@H](O)C[C@@H]4C[C@H](O)CC[C@]4(C)[C@H]3CC[C@]12C [TAUROCHENODEOXYCHOLATE]	substrate [+]
C[C@H](CCC(=O)NCC(=O)O)[C@H]1CC[C@H]2[C@@H]3[C@H](O)C[C@@H]4C[C@H](O)CC[C@]4(C)[C@H]3C[C@H](O)[C@]12C	substrate [+]
C[C@H](CCC(=O)NCCS(=O)(=O)O)[C@H]1CC[C@H]2[C@@H]3[C@@H](O)C[C@@H]4C[C@H](O)CC[C@]4(C)[C@H]3CC[C@]12C	substrate [+]

The record that follows has no Activity shown yet.
Q: Notebook: pull reported Activity for Hepatic sodium/bile acid cotransporter (Homo sapiens), entry O=C1OC(c2ccc(O)c(S(=O)(=O)[O-])c2)(c2ccc(O)c(S(=O)(=O)[O-])c2)c2c(Br)c(Br)c(Br)c(Br)c21.[Na+].[Na+] [SULFOBROMOPHTHALEIN SODIUM]
A: substrate [+]
